Test system: MDA-MB-468 breast
ASSAY_REMARKS: NCI-60 one-dose screen, 48 h
DETAILS: 10 µM unless noted
Compounds without any hit were thinned out: in the full panel of roughly 83,000, 20% have a hit. Active and inactive are the calls of the source. The calls were made as follows: active = growth percent below 10; inactive = the rest.
Can you answer with just one of these options? Y for active, N for inactive

Previously resolved entries follow.
[[record]]
compound = "C[C@@H](N)c1ccc(C(=O)Nc2ccnc3[nH]ccc23)cc1"
class_assignment = "N"

[[record]]
compound = "O/N=C1\\CCC2CCCCC2C1 (stereo not given)"
class_assignment = "N"

[[record]]
compound = "CCCCCCCCCCCC[N+]1(CCCCCCCCCCCC)CCCC(C)C1 (stereo not given)"
class_assignment = "Y"

[[record]]
compound = "CCN(CC)c1ccc(C(=O)c2ccc(N(CC)CC)cc2)cc1"
class_assignment = "Y"

[[record]]
compound = "CCCNC(=O)Oc1ccc(/C(=C(/C)Cc2ccc(OC)cc2)c2ccc(OCCN3CCCC3)cc2)cc1"
class_assignment = "N"


Qu. Check the results log: what was the call for Nc1n[nH]c2cccc(C#Cc3cccc(NC(=O)c4cc(F)cc(C(F)(F)F)c4)c3)c12 ?
Ans. N

Qu. How about Fc1cc2c(cc1Cl)N(c1ncnc3ccc(-c4cnc5[nH]ncc5c4)cc13)CC2 ?
Ans. N

Qu. How about CC[C@@]1(OC(=O)CN(C)C)C(=O)OCc2c1cc1n(c2=O)Cc2cc3c(N)cccc3nc2-1 ?
Ans. Y

Qu. How about C/C(=N\NC(=S)Nc1ccccc1)c1ccccn1 ?
Ans. Y

Qu. How about NS(=O)(=O)c1ccc(CCN=C=S)cc1 ?
Ans. Y

Qu. How about COc1cc(C2CC(c3ccc(Nc4nc(NCCO)nc(N5CCOCC5)n4)cc3)=NN2c2cc(Cl)cc(Cl)c2)cc(OC)c1OC (stereo not given) ?
Ans. N

Qu. How about N#CCCN1C/C(=C/c2ccc(Cl)cc2)C(=O)/C(=C/c2ccc(Cl)cc2)C1 ?
Ans. Y

Qu. How about Cc1cc(C)cc(NC(=O)Cn2nncc2CN2C(=O)CSC2=O)c1 ?
Ans. N

Qu. How about CCOC(=O)C/C(=N\Nc1cc(=O)[nH]c2ccc(Br)cc12)C(=O)OCC ?
Ans. N

====

Property: growth; scope: individual compounds
Test system: MDA-MB-468 breast
ASSAY_REMARKS: NCI-60 one-dose screen, 48 h (100 = growth as untreated, 0 = no growth, -100 = all killed)
DETAILS: 10 µM unless noted
Compounds without any hit were thinned out: in the full panel of roughly 83,000, 20% have a hit. Calls of active or inactive are those of the source. How the source made its calls: active means growth percent below 10; inactive means the rest.

[[record]]
compound = "CCN(CC)CCOc1ccc(NC(=O)C(C(C)C)N2C(=O)/C(=C/c3ccc(Br)cc3)SC2=S)cc1 (stereo unspecified)"
result = "63.2% (inactive)"

[[record]]
compound = "CCCCCCN(CCCCCC)C(=N)c1ccnc2ccccc12"
result = "12.5% (inactive)"

[[record]]
compound = "CCOc1cc2ncc(C#N)c(Nc3ccc(F)c(Cl)c3)c2cc1NC(=O)CC1CCSS1 (stereo unspecified)"
result = "-74.2% (active)"


Qu. Return reported growth; argument: Brc1ccc(-c2cc(-c3ccc4c(c3)OC=CO4)n[nH]2)s1
Ans. -13.5% (active)

Qu. How about O=[N+]([O-])c1ccc(N/N=C\c2cc(Cl)ccc2O)nc1 ?
Ans. -2.47% (active)

Qu. How about CN(C)CCNC(=O)c1cccn2c(=O)c3cc4ccccc4cc3nc12 ?
Ans. -43.6% (active)
